Consider the following compounds and their measured CHLORIDE readings.
- Species: Rattus norvegicus
- assay: DrugMatrix - Regimen: Daily Repeat
- Assay type: toxicity, organism-based, Sprague-Dawley
- Set-up: regimen Daily Repeat, gender Male, age 6-8 weeks
- measurementParameters: in vivo, po, 0 mg/kg, 72 h, tissue Plasma, route oral GAVAGE, dose level Control, time 3 day, […]
Numeric answer plus unit only.

Look over these answered cases.
O=NN(CCCl)C(=O)NC1CCCCC1    100 MEQ/L
O=c1oc2ccccc2c(O)c1Cc1c(O)c2ccccc2oc1=O    98.33 MEQ/L

# CHLORIDE of CC(C)C(=O)Nc1ccc([N+](=O)[O-])c(C(F)(F)F)c1 [FLUTAMIDE] = 95.83 MEQ/L

The compound identified as CC(C)(Oc1ccc(Cl)cc1)C(=O)O registered its CHLORIDE at 100 MEQ/L

Recorded CHLORIDE (compound Cc1noc(NS(=O)(=O)c2ccc(N)cc2)c1C ): 101 MEQ/L

----------
- Species on record: Rattus norvegicus
- assay: DrugMatrix - Regimen: Daily Repeat
- Assay type: toxicity, organism-based, Sprague-Dawley
- Design: regimen Daily Repeat, gender Male, age 6-8 weeks
- measurementParameters: in vivo, iv, 0 mg/kg, 72 h, tissue Plasma, dose level Control, time 3 day, vehicle 100 % SALINE
Starred links: 1 amine or outer side, 2 acyl side, 3 side chain; linkers in the order of their positions; H or OH if unused. Positions of bridges follow the written chain, without caps; N, C: chain ends. Non-standard residues stand in square brackets, D forms with d. Residues, ends and D or L forms follow the SMILES beside them. Chains are numbered I, II in the order given. Actinocin(9to1) = Cc1c2oc3c(C)ccc(C(=O)[*:1])c3nc-2c(C(=O)[*:2])c(N)c1=O; NMeV = CN[C@H](C(=O)O)C(C)C; Sar = CNCC(=O)O
endpointLabel: SODIUM (MEQ/L)
Form entry: value (MEQ/L) — number only.

Below, each entry is followed by its recorded SODIUM result.
COc1cc2c3cc1Oc1cc(ccc1O)C[C@@H]1c4c(cc(OC)c(O)c4Oc4ccc(cc4)C[C@@H]3N(C)CC2)CC[N+]1(C)C.[Cl-]    142.1
Cc1c2oc3c(C)ccc(C(=O)N[C@@H]4C(=O)N[C@H](C(C)C)C(=O)N5CCC[C@H]5C(=O)N(C)CC(=O)N(C)[C@@H](C(C)C)C(=O)O[C@@H]4C)c3nc-2c(C(=O)N[C@@H]2C(=O)N[C@H](C(C)C)C(=O)N3CCC[C@H]3C(=O)N(C)CC(=O)N(C)[C@@H](C(C)C)C(=O)O[C@@H]2C)c(N)c1=O [DACTINOMYCIN] (I: T[dV]P[Sar][NMeV] / II: T[dV]P[Sar][NMeV]; ester I:1-I:C, II:1-II:C; linker I:N-II:N via Actinocin(9to1))    141.68
CC[C@]1(O)C[C@H]2CN(CCc3c([nH]c4ccccc34)[C@@](C(=O)OC)(c3cc4c(cc3OC)N(C=O)[C@H]3[C@@](O)(C(=O)OC)[C@H](OC(C)=O)[C@]5(CC)C=CCN6CC[C@]43[C@@H]65)C2)C1    144.2

Now look at this one.
Entry Cc1ccc(N(CC2=NCCN2)c2cccc(O)c2)cc1 — recorded SODIUM = 145.28
